# Assayed system: human PMNL LTB4 receptor (Homo sapiens, UniProt Q15722)
# Construct: endogenous in cells
# Sequence (Q15722 whole entry): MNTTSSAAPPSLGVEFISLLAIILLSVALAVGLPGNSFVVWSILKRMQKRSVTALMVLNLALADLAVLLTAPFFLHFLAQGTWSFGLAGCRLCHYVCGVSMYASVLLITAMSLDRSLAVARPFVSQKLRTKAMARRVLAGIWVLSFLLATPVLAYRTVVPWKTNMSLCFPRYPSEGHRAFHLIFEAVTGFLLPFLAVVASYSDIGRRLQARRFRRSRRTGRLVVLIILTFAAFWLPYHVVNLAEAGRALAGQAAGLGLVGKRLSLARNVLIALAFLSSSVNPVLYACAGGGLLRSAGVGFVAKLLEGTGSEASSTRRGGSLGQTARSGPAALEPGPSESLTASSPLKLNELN
# Experiment notes: Binding affinity of 3H-LTB4 antagonist to human PMNL LTB4 receptor (inhibition of specific 3H-LTB4 binding)
# Reported conditions: 1 nM 3H-LTB4, human PMNLs, 4° C., 20 min
Metric name: IC50 (nM)

Previously resolved entries follow.
compound=COc1ccc(/C=C/CCCCOc2cccc(OCCCC(=O)O)c2CCC(=O)O)cc1 metric_name=IC50 reported_result=40
compound=COc1ccc(/C=C/CCCCOc2ccc(NC(=O)c3cccc(C(=O)O)c3)cc2CCC(=O)O)cc1 metric_name=IC50 reported_result=20
compound=COc1ccc(/C=C/CCCCOc2ccc(N3C(=O)CCCS3(=O)=O)cc2CCC(=O)O)cc1 metric_name=IC50 reported_result=7
compound=COc1ccc(/C=C/CCCCOc2cccc(CCCCCC(=O)O)c2CCC(=O)O)cc1 metric_name=IC50 reported_result=15
compound=COc1ccc(/C=C/CCCCOc2cccc(OCCCCN3CCCC3=O)c2CCC(=O)O)cc1 metric_name=IC50 reported_result=70

(a) CCCCCOc1ccc(/C=C/CCCCOc2ccc(NC(=O)CCCC(=O)N(C)C)cc2CCC(=O)O)cc1
(b) COc1ccc(/C=C/CCCCOc2cccc(N3C(=O)CCCS3(=O)=O)c2CCC(=O)O)cc1
Of a and b , which shows the smaller IC50 value? Indicate your choice by writing its label. b
(b: 150 nM, a: 400 nM)

(A) COc1ccc(/C=C/CCCCOc2ccc(NS(=O)(=O)Cc3ccccc3)cc2CCC(=O)O)cc1
(B) CCCCCC(O)/C=C/CCCCOc1ccc(NC(=O)CCCC(=O)N(C)C)cc1CCC(=O)O (stereo not shown)
Of A and B , which shows the smaller IC50 value? Indicate your choice by writing its label. A

(1) COc1ccc(/C=C/CCCCOc2ccc(N(S(=O)(=O)Cc3ccccc3)S(=O)(=O)Cc3ccccc3)cc2CCC(=O)O)cc1
(2) COc1ccc(/C=C/CCCCOc2ccc(NS(=O)(=O)CCCC(=O)N(C)C)cc2CCC(=O)O)cc1
(3) Cc1ccc(/C=C/CCCCOc2ccc(NC(=O)CCCC(=O)N(C)C)cc2CCC(=O)O)cc1 [1 (s)]
(4) COc1ccc(/C=C/CCCCOc2ccc(OCCCCC(=O)O)cc2CCC(=O)O)cc1
# desc sort on IC50 across 4 compounds Please reply with the labels ordered as requested. Many thanks. 1, 3, 4, 2
(1: 1000 nM, 3: 170 nM, 4: 70 nM, 2: 30 nM)

(P) COc1ccc(/C=C/CCCCOc2ccc(C(=O)CCCC(=O)N(C)C)cc2CCC(=O)O)cc1
(Q) CSc1ccc(/C=C/CCCCOc2ccc(NC(=O)CCCC(=O)N(C)C)cc2CCC(=O)O)cc1
Field: entry with larger IC50 (options P / Q ). Indicate your choice by writing its label. Q
(Q: 50 nM, P: 30 nM)

(A) COc1ccc(/C=C/CCCCOc2ccc(NS(C)(=O)=O)cc2CCC(=O)O)cc1
(B) COc1ccc(/C=C/CCCCOc2cccc(C(=O)CCCCC(=O)O)c2CCC(=O)O)cc1
(C) COc1ccc(/C=C/CCCCOc2ccc(NC(=O)c3cccc(CO)c3)cc2CCC(=O)O)cc1
(D) COc1ccc(CCCCCCOc2cccc(OCCCCC(=O)N(C)C)c2CCC(=O)O)cc1
In this exercise, place the 4 compounds in ascending sequence of their recorded IC50. Please reply with the labels ordered as requested. Many thanks. B, A, C, D
